// provenance: BigSolDB 2.1

condition-parameters: in tert-butanol, 343.65 K
quantity-kind: solubility (mole fraction)
Just the number.

response.value for Cc1cc(C(=O)O)ccc1[N+](=O)[O-] (field: solubility (mole fraction)) = 0.0878

---

condition-parameters: in n-butanol, 328.15 K
quantity-kind: solubility (mole fraction)
Just the number.

response.value for Cc1ccc([N+](=O)[O-])c(C(=O)O)c1 (field: solubility (mole fraction)) = 0.338
